SUBJECT OF TEST: Prostaglandin G/H synthase 1 (Homo sapiens)
Sequence (P23219 whole entry): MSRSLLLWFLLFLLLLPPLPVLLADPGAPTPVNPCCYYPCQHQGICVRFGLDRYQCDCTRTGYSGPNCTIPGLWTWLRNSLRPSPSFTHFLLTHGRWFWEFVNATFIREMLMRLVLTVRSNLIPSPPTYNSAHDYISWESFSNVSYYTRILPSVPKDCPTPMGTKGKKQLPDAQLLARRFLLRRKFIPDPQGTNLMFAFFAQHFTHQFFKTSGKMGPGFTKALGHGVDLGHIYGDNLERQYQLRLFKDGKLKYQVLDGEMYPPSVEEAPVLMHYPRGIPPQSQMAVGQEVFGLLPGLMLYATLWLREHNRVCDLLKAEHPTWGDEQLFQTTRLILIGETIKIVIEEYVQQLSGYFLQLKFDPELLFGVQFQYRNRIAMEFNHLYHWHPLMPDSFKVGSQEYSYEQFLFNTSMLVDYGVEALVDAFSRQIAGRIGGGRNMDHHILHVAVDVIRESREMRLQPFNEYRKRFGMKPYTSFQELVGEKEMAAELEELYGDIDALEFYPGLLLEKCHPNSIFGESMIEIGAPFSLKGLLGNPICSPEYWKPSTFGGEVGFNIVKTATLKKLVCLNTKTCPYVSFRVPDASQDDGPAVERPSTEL
Format: functional
QUANTITY NAME: AC50

CC(C)(C)NCC(O)COc1ccccc1C#N (stereo unspecified) | > 30 µM
O=c1[nH]cc(F)c(=O)[nH]1 | > 30 µM
Cc1cccc(C)c1NC(=O)c1cc(S(N)(=O)=O)c(Cl)cc1O [XIPAMIDE] | > 30 µM

Measured AC50 for this entry OC[C@H]1NC[C@H](O)[C@@H](O)[C@H]1O on Prostaglandin G/H synthase 1 (Homo sapiens): > 30 µM

Measured AC50 for this entry CC(CN(C)C)CN1c2ccccc2CCc2ccccc21 (stereo unspecified) on Prostaglandin G/H synthase 1 (Homo sapiens): > 30 µM

Measured AC50 for this entry COC(=O)N(C)c1c(N)nc(-c2nn(Cc3ccccc3F)c3ncccc23)nc1N on Prostaglandin G/H synthase 1 (Homo sapiens): > 30 µM

Measured AC50 for this entry CCOc1ccc(Cc2nccc3cc(OCC)c(OCC)cc23)cc1OCC on Prostaglandin G/H synthase 1 (Homo sapiens): > 30 µM

----------
Catalogue of AC50 readings, one per entry.
SUBJECT OF TEST: Progesterone receptor (Homo sapiens, UniProt P06401)
Sequence (P06401 whole entry): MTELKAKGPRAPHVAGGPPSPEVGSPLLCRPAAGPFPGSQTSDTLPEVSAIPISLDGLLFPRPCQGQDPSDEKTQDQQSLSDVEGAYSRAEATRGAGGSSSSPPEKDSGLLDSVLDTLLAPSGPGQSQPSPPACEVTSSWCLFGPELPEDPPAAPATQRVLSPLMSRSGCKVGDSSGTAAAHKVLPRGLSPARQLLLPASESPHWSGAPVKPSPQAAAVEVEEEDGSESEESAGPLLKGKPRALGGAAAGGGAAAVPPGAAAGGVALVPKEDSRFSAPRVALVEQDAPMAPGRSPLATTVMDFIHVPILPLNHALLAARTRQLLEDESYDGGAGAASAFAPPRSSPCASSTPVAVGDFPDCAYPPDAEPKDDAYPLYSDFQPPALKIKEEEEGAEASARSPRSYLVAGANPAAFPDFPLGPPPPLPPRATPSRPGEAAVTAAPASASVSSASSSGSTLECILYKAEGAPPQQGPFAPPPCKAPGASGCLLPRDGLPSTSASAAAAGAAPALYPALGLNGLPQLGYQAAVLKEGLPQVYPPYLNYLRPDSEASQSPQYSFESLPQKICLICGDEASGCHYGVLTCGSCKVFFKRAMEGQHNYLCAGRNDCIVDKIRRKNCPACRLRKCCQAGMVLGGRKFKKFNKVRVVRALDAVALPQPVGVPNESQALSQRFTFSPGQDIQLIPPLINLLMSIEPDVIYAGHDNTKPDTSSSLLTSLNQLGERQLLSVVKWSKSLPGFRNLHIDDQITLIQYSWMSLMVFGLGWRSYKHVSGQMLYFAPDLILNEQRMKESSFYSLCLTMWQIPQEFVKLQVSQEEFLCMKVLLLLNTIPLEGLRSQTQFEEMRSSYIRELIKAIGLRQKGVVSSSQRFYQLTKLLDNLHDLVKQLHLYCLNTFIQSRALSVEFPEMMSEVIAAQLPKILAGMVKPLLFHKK
Type: functional

Observe how each entry below is paired with its result.
CC1CC(OC(=O)C(O)c2ccccc2)CC(C)(C)C1 (stereo unspecified) [CYCLANDELATE] | > 30 µM
CCCO[C@H]1[C@@H]([C@@H](COCc2ccc(Cl)cc2)OCc2ccc(Cl)cc2)OC(OCC)[C@@H]1O (stereo partly specified) [CLOBENOSIDE] | 22 µM
CC(=O)OCC1=C(C(=O)O)N2C(=O)[C@@H](NC(=O)CSc3ccncc3)[C@H]2SC1 | > 30 µM
OCC(CO)N[C@H]1C[C@](O)(CO)[C@@H](O)[C@H](O)[C@H]1O | > 30 µM
O=C(O)c1ccc2nc(-c3cc(Cl)cc(Cl)c3)oc2c1 | > 30 µM

Given item CCOCC(O)COc1ccc(NC(=O)CC[S+](C)C)cc1 (stereo unspecified) , the value recorded as its AC50 is > 30 µM

Given item CCCCCCOC(=O)NC(=N)c1ccc(NCc2nc3cc(C(=O)N(CCC(=O)OCC)c4ccccn4)ccc3n2C)cc1 [DABIGATRAN ETEXILATE] , the value recorded as its AC50 is > 30 µM

Given item CO/N=C(\C(=O)N[C@@H]1C(=O)N2C(C(=O)O)=C(CSc3nc(C)c(CC(=O)O)s3)CS[C@H]12)c1csc(N)n1 , the value recorded as its AC50 is > 30 µM

Given item CO/N=C(\C(=O)N[C@@H]1C(=O)N2C(C(=O)[O-])=C(C[n+]3ccc(N)n3CCO)CS[C@H]12)c1csc(N)n1 , the value recorded as its AC50 is > 30 µM
